Test system: ICR mice
Experiment: Acute toxicity experiment of single oral administration in mice
Type: in vivo
Details: Day 3; female; 1000 mg/Kg single oral dose
readoutKind: Daily Body Weight of Tested Female Mice (Mean ± SD) (g)
Write the number in g without appending the unit.

Request: I am curious: what Daily Body Weight of Tested Female Mice (Mean ± SD) value has been reported for CSCCN1C(=O)CCC(N2C(=O)c3cccc(N)c3C2=O)C1=O (centres unmarked) ?
Response: 22.4

Request: Record request: Daily Body Weight of Tested Female Mice (Mean ± SD) value, item COCCCN1C(=O)CCC(N2C(=O)c3cccc(F)c3C2=O)C1=O (centres unmarked)
Response: 22.7

Request: Recorded Daily Body Weight of Tested Female Mice (Mean ± SD) for CCOCCN1C(=O)CCC(N2C(=O)c3cccc(N)c3C2=O)C1=O (centres unmarked) , please?
Response: 21.3

Request: I have this molecule here, COCCN1C(=O)CCC(N2C(=O)c3cccc(O)c3C2=O)C1=O (centres unmarked) , and I need its recorded Daily Body Weight of Tested Female Mice (Mean ± SD).
Response: 23.0

Request: Record request: Daily Body Weight of Tested Female Mice (Mean ± SD) value, item COCCCCN1C(=O)CCC(N2C(=O)c3cccc(N)c3C2=O)C1=O (centres unmarked)
Response: 22.9

Source: patent US11873287B2
